Target: human EGFR L858R/T790M (NIH/3T3 cells) (Homo sapiens, UniProt P00533, L858R/T790M)
Sequence (P00533 25-1210 T790M/L858R): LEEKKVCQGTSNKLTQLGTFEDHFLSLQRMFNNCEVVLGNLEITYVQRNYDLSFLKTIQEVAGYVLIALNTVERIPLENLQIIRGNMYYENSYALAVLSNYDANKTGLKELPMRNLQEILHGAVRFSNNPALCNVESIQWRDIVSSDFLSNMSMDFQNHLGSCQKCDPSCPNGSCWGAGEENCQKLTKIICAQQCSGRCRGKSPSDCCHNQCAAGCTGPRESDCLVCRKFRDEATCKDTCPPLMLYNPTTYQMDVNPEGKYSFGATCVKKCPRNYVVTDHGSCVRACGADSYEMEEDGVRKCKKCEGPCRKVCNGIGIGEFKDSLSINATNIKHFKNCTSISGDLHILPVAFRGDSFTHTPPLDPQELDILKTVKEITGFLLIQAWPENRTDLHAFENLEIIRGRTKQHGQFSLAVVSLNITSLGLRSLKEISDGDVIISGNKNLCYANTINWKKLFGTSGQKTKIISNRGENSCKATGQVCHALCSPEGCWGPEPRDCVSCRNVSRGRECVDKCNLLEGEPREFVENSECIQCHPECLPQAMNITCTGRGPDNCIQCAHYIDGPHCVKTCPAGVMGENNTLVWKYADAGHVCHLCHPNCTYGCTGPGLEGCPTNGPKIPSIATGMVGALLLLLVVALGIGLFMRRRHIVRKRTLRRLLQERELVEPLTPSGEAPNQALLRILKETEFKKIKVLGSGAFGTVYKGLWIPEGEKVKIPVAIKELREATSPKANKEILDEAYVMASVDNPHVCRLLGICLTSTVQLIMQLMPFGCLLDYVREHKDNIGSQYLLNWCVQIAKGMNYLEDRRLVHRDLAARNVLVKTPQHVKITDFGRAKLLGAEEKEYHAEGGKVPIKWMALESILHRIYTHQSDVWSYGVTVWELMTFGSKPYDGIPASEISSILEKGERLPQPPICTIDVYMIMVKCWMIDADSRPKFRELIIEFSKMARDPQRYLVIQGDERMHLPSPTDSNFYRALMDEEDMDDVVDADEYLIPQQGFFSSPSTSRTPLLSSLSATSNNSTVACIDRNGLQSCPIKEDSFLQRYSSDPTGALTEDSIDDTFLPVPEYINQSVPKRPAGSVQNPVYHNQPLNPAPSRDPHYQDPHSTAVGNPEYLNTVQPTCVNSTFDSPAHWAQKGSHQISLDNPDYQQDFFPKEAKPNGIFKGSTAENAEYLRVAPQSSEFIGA
Test: EGFR target modulation in engineered NIH/3T3 cell lines (phospho-EGFR Y1068 AlphaLISA), EGFR L858R/T790M
Format: cell-based
Conditions: engineered NIH/3T3 cells, read-out: NIH3T3 IC50 (μM) EGFR (L858R/T790M)
Protocol: EGFR Target Modulation in Engineered NIH/3T3 Cell Lines Tissue Culture. The cells were harvested with 0.05% Trypsin/EDTA (Hyclone #SH30236.01), re-suspended in 5% FBS/DMEM Pen/Strep without Puromycin and plated at 9,000 cells per well in 50 μl of media in a 384-well black plate with clear bottoms (Greiner #789068G). […] With these parameters, the IC50's for each compound in each cell line was calculated using non-linear curve fitting analysis.
recorded metric: IC50 (µM)

(a) C=CC(=O)N1CCCC[C@@H](n2c(NC(=O)c3ccnc(C)c3)nc3cc(CN4CC(F)C4)cc(C)c32)C1
(b) C=CC(=O)N1CCC[C@@H](n2c(NC(=O)c3cccc(C(F)(F)F)c3)nc3cc(COCCOC)ccc32)C1
(c) Cc1cccc2nc(NC(=O)c3ccccc3F)n(C3CCCCN(C(=O)/C=C/CN(C)C)C3)c12 (stereo not shown)
(d) C=CC(=O)N1CCCCC(n2c(NC(=O)c3ccccc3)nc3cccc(C(=O)NCCS(C)(=O)=O)c32)C1 (stereo not shown)
## Input Arrange the 4 entries by IC50 so the values rise. Response format: the labels, sorted as the prompt asks.
## Output a, c, b, d
